Tested on: K4 kissing-loop RNA reporter;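 also: bound reporter read as fluorescence of individual clusters on recovered sequencing chips by microscopy, with normalized cluster intensities fitted with a binding model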
test: apparent KD of K4 kissing-loop reporter; higher = weaker reporter binding
protocol-conditions: Eterna round: R107; input ligand: tryptophan 2.4 mM
Grouping by measured apparent KD of K4 kissing-loop reporter is done with the following cut points: category 1: < 200 nM; category 2: ≥ 200 nM and < 400 nM; category 3: ≥ 400 nM

(Q) Category of UUAUCAUCAGCGGCCGCCACUGCAAAUUGGAGUGAUGUUCCAAGCGUGGAUAUUGAAAUUACUAGUAGGACCGGGUUGAUGAAUU [AK 2 Ex Trypt B] :
(A) category 1

(Q) Which class does AAAGAUCUUCUAGAAACUAGAAGAUCAAGAGAGGAUAUCCGAAUUCGGAGAAGGCUCACUAAGUGAUGUUUGGAGCCAAUGGCAA [AK2 SS FMN A] fall in?
(A) category 3

(Q) Tag the class for GGUAGCAUGGCGGCCGCCACUCGCUAGUGAUGUUAGCGGGAUGAGACAAAGGACAUAACUUUAUCGAGGACCGGGCCAUGCUACC
(A) category 1

(Q) Note: place this sequence into its band. Item: GCGUAUGAUGCUCAAAGAGUAUCUCCCGAUACCAGUAUGGAAACAUACCCUUGGCAGCGGGUAACUGCCCAGUGAUGUUGGACGC [Theophylline A K4 9]
(A) category 2

(Q) Tag the class for AAAUAGAUCAGUCAUCCAGUGAUGUUGGAAGGAGCGUGCGAAAGCACAGGUAGGUCGCCAAAAUAAAACUGGCUGAUCAAAAUAA
(A) category 2

(Q) Lab log: ACGUAGUUCUAGGAUACCAGCCAAGGUGCCAGGACAAAAGUCCUGGCAGUCAGUGAUGUUGGCCCUUGGCAGCCUAGAACUACGA [Omei KL Theo B Exc B v8] — assign apparent KD of K4 kissing-loop reporter category
(A) category 2

(Q) # bin lookup: classify AGCGAGUGAUGUUCGCUGAUCAUGUGAAGUUAGGAUAUAUACUUGCAUAGAAGGAACUAUUACAUGACAUUAGAGGCAGUAGUUC [FMN A SS t7b] by its apparent KD of K4 kissing-loop reporter
(A) category 1

(Q) Place this sequence in its band: CCGACUGCAGGAAGGAGCGGCGGUUGGAGUGAUGUUCCAGGUAGUGAUGUUACCAAGAUCCGCCAGGUAGGUCGCCUGUUGCUCA [Same State Arginie B GF 12]
(A) category 1

(Q) Please report the category associated with ACGCGCGCGAGUGAUGUUCGGAGCGGCUGGCAGGAUAUGUAGCAAUGCAGAAGGGUCGUGGCGGGCGCGGCGAAAGCCGCGCCCG [#2 Exclusion - FMN A Attempt #6 (HarryS)] , nothing else.
(A) category 2

(Q) Using the reported apparent KD of K4 kissing-loop reporter, which band applies to GCCGUAGAUUGAAGGAGCGCCUUCUUACCAAGAGUGAUGUUCUUAGGUACCAUGUUCAGUAGGCAGGUAGGUCGCAAUCUACGGC ?
(A) category 3

(Q) Would you mind sorting AUACGUUUAAGUGAUACCAGACAUGUGAGUGAUGUUUACAAAUAAAUUAAAUUUUUAGCUGUCCCUUGGCAGCACAGUUUAUUUA [JR_ExcTheophyB_Sub002] into the appropriate category?
(A) category 3

###

Hi there, I'd appreciate the recorded apparent KD of MS2 coat protein for every entry that follows.
Tested on: MS2 coat protein
test: apparent KD of MS2 coat protein; designed switch direction (-1 OFF switch, 1 ON switch): -1; higher = weaker reporter binding
protocol-conditions: input ligand: none
State just the number; it will be interpreted in nM.

(Q) What apparent KD of MS2 coat protein appears in the records for this sequence with MS2 coat protein? AAUAAUCGGGCCUUCCUAAUACAUGAGGAUCACCCAUGUCUCGAGGAUAUACCAACGCACGGUCCGUAGAAGGCGAGACCACAC [Vesoonso] (Eterna round: R96, puzzle: Exclusion NG 3)
(A) 21.9

(Q) Find apparent KD of MS2 coat protein (MS2 coat protein) for the entry AGAUCUUCCGUAAGGAUAUGUGUGAAACAGACGGCACAGAAGGUACAUGAGGAUCACCCAUGUUACGCCGCGUA [Eternabot (L1) Solution 85] (Eterna round: R97, puzzle: Brourd's mod of Exclusion 4)
(A) 19.1

(Q) Fill in the recorded apparent KD of MS2 coat protein for this sequence, with MS2 coat protein as test system: AAUAACAAGCCGAUCCUAAACAUGAGGAUCACCCAUGUGCUCGUCUUGUAAAGUACUAUCACGAAAGUGAUAGUACA (Eterna round: R97, puzzle: Sensor, turn-off variant 1)
(A) 18

(Q) Given the entry ACGAUGACCGAAAAGUGUAAACUGACAUGAGGAUCACCCAUGUAGGAUAUGGCUACGAAAAGUAGUCAGAAGGGCAUGUCAUCA [Omei Exc(NG) 3 Av9] (Eterna round: R96, puzzle: Exclusion NG 3) , what apparent KD of MS2 coat protein was observed with MS2 coat protein?
(A) 20.9

(Q) For the record CUCAUUUGUCAGGAUAUCGUGUGGCUAAUUGUACGAGAAGGGACGACAUGAGGAUCACCCAUGUGGUCUUUGAG [JR_Ex6_Sub083] (Eterna round: R97, puzzle: Exclusion 6) , what value of apparent KD of MS2 coat protein is listed for MS2 coat protein?
(A) 54.8

(Q) Lab note: need apparent KD of MS2 coat protein with MS2 coat protein for entry UAUUGAGAGCAGGAUAUAUUCCUGAUGUAUGAAGUAGAAGGGCUCACAUGAGGAUCACCCAUGUGAUCCUGAAU [Mat - Exclusion 6 - Eli Mod - D5] (Eterna round: R97, puzzle: Exclusion 6) , please look it up.
(A) 14

(Q) Identify the measured apparent KD of MS2 coat protein of GCUCACGCAGGAUAUACAUGAGGAUCACCCAUGUUCGAAGGGCGUGGGUACAAAGUCUGUAGAAGGGCGAAAAU [Edrereve] (Eterna round: R97, puzzle: Exclusion 3) for MS2 coat protein.
(A) 17.4

(Q) Under MS2 coat protein: apparent KD of MS2 coat protein value of AUAAUGUGAGGAUAUCAGUCGACUAGCUUCGGCUAGUCGACUGAGAAGGUACAUGAGGAUCACCCAUGUGGUUC [E4/11-B1] (Eterna round: R97, puzzle: Exclusion 4) ?
(A) 456

(Q) Which apparent KD of MS2 coat protein is reported with MS2 coat protein for this entry: GGUGAAGCAGGAUAUGUACCAAUAUACAUGAGGAUCACCCAUGUCAUGUAGGAACUGCGUAUAGAAGGGCUUCACC [Exclusion 5 (FMN-MS2 slide v.7)] (Eterna round: R97, puzzle: Exclusion 5) ?
(A) 55

(Q) Form field: apparent KD of MS2 coat protein recorded for AACUCUGAGAAGGAUAUUGUACGGGAAAUGGUACAAGAAGGUUUCACAUGAGGAUCACCCAUGUCGAAUAGUGA [EX6 #69] (Eterna round: R97, puzzle: Exclusion 6) with MS2 coat protein (enter value)
(A) 22.9

meta.source: the supplement of paper PMC9170038
